system: TXA2 biosynthesis; assay: TXA2 biosynthesis inhibitory test (bovine platelet microsome, TXB2 by radioimmunoassay); format: biochemical; conditions: in 10 μM
Observed property: TXA2 Biosynthesis Inhibitory Activity Inhibition Rate (%)

In [3]: df
Out[3]:
                                   molecule  observed_measurement
0  O=C(O)Cc1ccc(CCNS(=O)(=O)c2ccc(Cl)cc2)cc1 [BM13505, reference compound]                     8
1  COc1cc2ncn(C/C=C3\c4ccccc4COc4ccc(C(=O)O)cc43)c2cc1OC [Compound E-101b]                    17
2  COc1ccc2c(c1)ncn2C/C=C1\c2ccccc2COc2ccc(C(=O)O)cc21 [Compound E-61b]                     1
3  CN(C)CC/C=C1/c2ccccc2COc2ccc(CC(=O)O)cc21 [KW 4679, reference compound]                     1
4  O=C(O)c1ccc2c(c1)C(=NCc1cccnc1)c1ccccc1CO2 [Compound 25b]                   100
5  O=C(O)c1ccc2c(c1)/C(=C/Cn1ccnc1)c1ccccc1CO2 [Compound E-37b', hydrate]                    94
